assay: NF-kB reporter blockers in CF airway cells – cell-based, GFP fluorescence, uHTS, primary screen (AID 588850); details: KKLEB NF-kB-GFP reporter, PAF-induced, GFP fluorescence overnight; at 5 µM; active compounds read high;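 further: PAF is a Pseudomonas aeruginosa culture filtrate used as stimulus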
The campaign covered roughly 360,000 compounds. About 3,100 (0.86%) were called active. The sample as a whole holds a higher share of actives than the screen did.
Consider the following partition of reported inhibition into named classes: bin A: < 10%; bin B: ≥ 10% and < 20%; bin C: ≥ 20%

molecule	answer-label
COc1cc(OC)c(C(=O)NNC(=O)c2ccccc2-n2cccc2)cc1OC	bin A
CCOC(=O)C(=Cc1ccccc1OC)C(=O)OCC	bin C
O=S(=O)(c1cccc(C(F)(F)F)c1)N1c2ccccc2-n2cccc2C1c1cccnc1 (stereo unspecified)	bin B
O=C(Nc1ccc(-n2cccn2)cc1)C1CCN(Cc2ccsc2)CC1	bin A
Cc1ccc(Cc2c(-c3ccccc3)nc3ccc(Cl)cn23)cc1	bin C
CCOC(=O)c1c(C)[nH]c(C)c1C(=O)CSc1nc(N)cc(N)n1	bin A
CCOC(=O)C(=Cc1ccccc1)C(=O)c1ccccc1	bin C
Cc1ccc(Cc2c(-c3ccco3)nc3ccc(Cl)cn23)cc1	bin C
Cn1c(=O)c2c(n(Cc3ccccc3)c1=O)NC(=O)C2CC(=O)N1CCc2ccccc2C1 (stereo unspecified)	bin B
O=c1ccc2c(-c3ccccc3S(=O)(=O)O)c3ccc(O)c(O)c3oc-2c1O	bin C
COCCNC(=O)c1ccc2c(c1)ncn2-c1ccc(C)c(Cl)c1	bin A
